Data origin, for the record: ChEMBL document CHEMBL5214960

Molecular target: Low molecular weight phosphotyrosine protein phosphatase (Homo sapiens, UniProt P24666)
Sequence (P24666 whole entry): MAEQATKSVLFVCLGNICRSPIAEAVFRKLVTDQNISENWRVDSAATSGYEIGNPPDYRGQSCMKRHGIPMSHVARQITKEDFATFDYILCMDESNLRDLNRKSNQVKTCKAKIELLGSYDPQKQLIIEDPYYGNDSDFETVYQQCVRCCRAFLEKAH
pIC50: −log10 of the molar value.
Outcome: 1 for pIC50 of at least 6; -1 for anything lower.

Past entries and their recorded results:
- O=C(CS(=O)(=O)O)Nc1cc(I)cc(I)c1: -1
- O=C(CS(=O)(=O)O)Nc1nc2ccc(C(=O)N3CCCC3)cc2s1: 1
- O=C(CS(=O)(=O)O)Nc1nc2ccc([N+](=O)[O-])cc2s1: 1
- Cc1c(Br)cc(NC(=O)[C@@H](c2cncs2)S(=O)(=O)O)cc1Br: -1
- Cc1cc([N+](=O)[O-])c2nc(NC(=O)CS(=O)(=O)O)sc2c1: 1

Next item in the queue.
I'd appreciate it if you could say whether `O=C(Nc1ccccc1)NS(=O)(=O)O` has pIC50 at least equal to 6.
1
